B1: OR4K15 (parent)
chain: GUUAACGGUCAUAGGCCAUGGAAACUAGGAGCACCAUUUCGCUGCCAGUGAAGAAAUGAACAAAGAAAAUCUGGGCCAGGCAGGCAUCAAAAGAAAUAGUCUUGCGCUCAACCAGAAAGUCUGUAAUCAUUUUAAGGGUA

- Variants of: B1
- assay.overview: self-cleavage, relative activity (ratio to wild type); higher = more cleavage; in vitro, sequencing; the parent is a self-cleaving ribozyme
Tag: true (1) if measured self-cleavage is not below 0.9, false (0) if it is.

[
  {
    "variant.id": "A22G U108A",
    "assigned.label": "false (0)"
  },
  {
    "variant.id": "U9C A111G",
    "assigned.label": "false (0)"
  },
  {
    "variant.id": "U43A U127C",
    "assigned.label": "true (1)"
  },
  {
    "variant.id": "A64U U108A",
    "assigned.label": "false (0)"
  },
  {
    "variant.id": "U49C U108A",
    "assigned.label": "false (0)"
  },
  {
    "variant.id": "A96G U132A",
    "assigned.label": "true (1)"
  },
  {
    "variant.id": "G28U",
    "assigned.label": "false (0)"
  },
  {
    "variant.id": "A95U G104A",
    "assigned.label": "false (0)"
  },
  {
    "variant.id": "A55G G83A",
    "assigned.label": "false (0)"
  },
  {
    "variant.id": "G93A U108A",
    "assigned.label": "false (0)"
  },
  {
    "variant.id": "A36U U127C",
    "assigned.label": "true (1)"
  },
  {
    "variant.id": "A5U A33G",
    "assigned.label": "false (0)"
  },
  {
    "variant.id": "C77U U132C",
    "assigned.label": "true (1)"
  },
  {
    "variant.id": "G28A A78U",
    "assigned.label": "false (0)"
  },
  {
    "variant.id": "G115A U132G",
    "assigned.label": "false (0)"
  },
  {
    "variant.id": "U57C A69C",
    "assigned.label": "false (0)"
  },
  {
    "variant.id": "U12C C42U",
    "assigned.label": "true (1)"
  },
  {
    "variant.id": "G31A G137U",
    "assigned.label": "true (1)"
  },
  {
    "variant.id": "A30G U132C",
    "assigned.label": "true (1)"
  },
  {
    "variant.id": "A11U A63G",
    "assigned.label": "false (0)"
  },
  {
    "variant.id": "U2C A64G",
    "assigned.label": "true (1)"
  },
  {
    "variant.id": "A52U U122A",
    "assigned.label": "true (1)"
  },
  {
    "variant.id": "A117G U120C",
    "assigned.label": "false (0)"
  },
  {
    "variant.id": "U120C U122A",
    "assigned.label": "false (0)"
  },
  {
    "variant.id": "A30U A64G",
    "assigned.label": "true (1)"
  },
  {
    "variant.id": "G28C",
    "assigned.label": "true (1)"
  },
  {
    "variant.id": "A78G G80A",
    "assigned.label": "false (0)"
  },
  {
    "variant.id": "G28A A98G",
    "assigned.label": "false (0)"
  },
  {
    "variant.id": "A56G A86U",
    "assigned.label": "true (1)"
  },
  {
    "variant.id": "A51U C101U",
    "assigned.label": "false (0)"
  },
  {
    "variant.id": "A63G A66G",
    "assigned.label": "true (1)"
  },
  {
    "variant.id": "A11G U72A",
    "assigned.label": "false (0)"
  },
  {
    "variant.id": "A11C A22G",
    "assigned.label": "true (1)"
  },
  {
    "variant.id": "U9C U108G",
    "assigned.label": "false (0)"
  },
  {
    "variant.id": "A68G U108C",
    "assigned.label": "false (0)"
  },
  {
    "variant.id": "A51U A95G",
    "assigned.label": "true (1)"
  },
  {
    "variant.id": "U70G A95G",
    "assigned.label": "true (1)"
  },
  {
    "variant.id": "A47C A116G",
    "assigned.label": "true (1)"
  },
  {
    "variant.id": "A67G A116C",
    "assigned.label": "false (0)"
  },
  {
    "variant.id": "A68G U108A",
    "assigned.label": "false (0)"
  },
  {
    "variant.id": "U108C A117U",
    "assigned.label": "false (0)"
  },
  {
    "variant.id": "U9C A82U",
    "assigned.label": "false (0)"
  },
  {
    "variant.id": "A51U A52G",
    "assigned.label": "true (1)"
  }
]
